Tested on: UACC-62
Test: NCI tumour cell line growth inhibition, 48 h
Activity calls are given as the source filed them. Rule as the data show it: active = GI50 up to about 1.1 µM and inactive = higher.
Give measured GI50 for each item. Keep answers brief.

CCN(CC)CCOC(=O)CCN1CC2CCC(CC2)C1; > 100 µM (inactive)
COC(=O)[C@@H](NC(=O)c1ccc(CNC(=O)/C(C)=C/c2ccccc2)cc1)C(C)C; 70 µM (inactive)
CC1(C)OC(=S)N(c2ccccc2)C12C=Cc1cc3ccccc3cc1O2 (stereo unspecified); > 100 µM (inactive)
CC(C)(C)[Si](Nc1ccccc1)(c1ccccc1)c1ccccc1; 10.6 µM (inactive)
CC(=O)OCC1OC(O/C=C(\CN=[N+]=[N-])C(C)=O)C(OC(C)=O)C(OC(C)=O)C1OC(C)=O (stereo unspecified); 11.6 µM (inactive)
Cc1nc2cccc(F)c2c(=O)n1-c1nnc(C2CC2)s1; > 10 µM (inactive)
CCN(CC)CC(O)c1ccc2ccc3ccccc3c2c1 (stereo unspecified); 15.3 µM (inactive)
NC1(CCCCCCCCCCC(=O)O)CNCCNCCNCCNC1; 47.6 µM (inactive)

Provide GI50 values for the following items, in order.
1. CCc1cccc(C(C)C)c1NC(=O)C(=O)Nn1c(S)nc2ccccc2c1=O
2. Clc1cccc(Cl)c1C1SCc2nc3ccccc3n21 (stereo unspecified)
3. CCOC(=O)CC(NC(=O)c1nc[nH]c1/N=N/N(C)C)C(=O)OCC (stereo unspecified)

> 100 µM (inactive)
50.1 µM (inactive)
> 100 µM (inactive)

----------
Give measured GI50 for each item. Keep answers brief.
Test system: OVCAR-4
Experiment: NCI tumour cell line growth inhibition, 48 h
Active and inactive are the calls of the source. No stated cut-off is given here; in the data, active = GI50 up to about 1.1 µM and inactive = higher. Where a SMILES comes first, the peptide text is derived from it. The star is where a group is joined. Boc = CC(C)(C)OC(=O)*; OBn = c1ccc(CO*)cc1

In the examples that follow, each entry is paired with its recorded GI50.
C#Cc1cccc(N2C(=O)CCC2=O)c1; 13.1 µM (inactive)
CC(C)=CC(=O)CC(=O)C(=O)Nc1ccc(Cl)c(Cl)c1; > 100 µM (inactive)

Provide GI50 values for the following items, in order.
1. O=C1OCC/C1=N/O
2. CCN(CC)CC(O)c1ccc2ccc3ccccc3c2c1 (stereo not drawn)
3. C/C(=N\NC1=NCCN1)c1cn(C2=NCCN2)nc1C
4. NS(=O)(=O)c1cc2c(cc1Cl)NCNS2(=O)=O [HYDROCHLOROTHIAZIDE]
5. Cc1ccc2c(c1)SSSSS2
6. CC(=O)Nc1ccc(Sc2nnc(NC(C)=O)s2)cc1
7. CCN(CC)CCNc1ccc2ncn3c4cc(O)ccc4c(=O)c1c23

["> 100 µM (inactive)", "17.4 µM (inactive)", "> 100 µM (inactive)", "> 100 µM (inactive)", "18.3 µM (inactive)", "> 100 µM (inactive)", "2.45 µM (inactive)"]

Provide GI50 values for the following items, in order.
1. CC(=O)OCC1OC(O/C=C(\CN=[N+]=[N-])C(C)=O)C(OC(C)=O)C(OC(C)=O)C1OC(C)=O (stereo not drawn)
2. CC(C)(C)OC(=O)NC(Cc1ccccc1)C(=O)NC(Cc1ccccc1)C(=O)NCC(=O)OCc1ccccc1 (stereo not drawn) (Boc-Phe-Phe-Gly-OBn; configuration not given here)

1. 12.5 µM (inactive)
2. 24.7 µM (inactive)

Provide GI50 values for the following items, in order.
1. COc1ccc(-n2c(CCC(=O)O)nc3c2C(=O)c2ccccc2C3=O)cc1
2. Cc1cc(C2(O)C=C(C(C)(C)C)C(=O)C(C(C)(C)C)=C2)c(C)cc1C1(O)C=C(C(C)(C)C)C(=O)C(C(C)(C)C)=C1
3. O=C(/C=C/c1ccccc1)Oc1cccc2cccnc12
4. C[N+]1([O-])[C@H]2CC(OC(=O)[C@H](CO)c3ccccc3)C[C@H]1[C@H]1O[C@H]12 (stereo partly drawn)
5. Cc1ccc(NC(=O)CSC(N)=O)cc1C
6. O=C(NCCCC/N=c1/cccccc1NCCCCNC(=O)OCc1ccccc1)OCc1ccccc1
7. Nc1ccc(Nc2c3ccccc3nc3ccccc23)cc1

1: > 100 µM (inactive); 2: > 100 µM (inactive); 3: 6.87 µM (inactive); 4: > 100 µM (inactive); 5: > 100 µM (inactive); 6: 18.9 µM (inactive); 7: 3.83 µM (inactive)

Provide GI50 values for the following items, in order.
1. O=C1C=CC2(CCCCCCC2=O)CC1 (stereo not drawn)
2. COc1cc(CNc2cnc3ccc(N)cc3n2)cc(OC)c1OC
3. O=C(O)c1cc(/N=N/c2ccc([As](=O)(O)O)cc2)ccc1O
4. CCC1c2[nH]c3ccccc3c2C[C@H]2C(=O)NC(C)C(=O)N12 (stereo partly drawn)
5. N=C(N)NS(=O)(=O)c1ccc(NC(=O)c2cccc3c(Nc4ccc(S(=O)(=O)N=C(N)N)cc4)c4ccccc4nc23)cc1
6. CCCCSc1nsc(N(C(=O)c2ccccc2)C(=O)c2ccccc2)n1
7. CCc1c(C)[nH]c2c1/C(=N/N=C1\CCCc3[nH]c(C)c(CC)c31)CCC2

1: > 100 µM (inactive); 2: > 100 µM (inactive); 3: > 100 µM (inactive); 4: > 100 µM (inactive); 5: 26.6 µM (inactive); 6: 57.5 µM (inactive); 7: 18.1 µM (inactive)

Hello, the source for this data is ChEMBL document CHEMBL1201862, in case you need it.
